assayed system: recombinant human CK2 (Homo sapiens (Human), UniProt P68400)
Sequence (P68400 whole entry): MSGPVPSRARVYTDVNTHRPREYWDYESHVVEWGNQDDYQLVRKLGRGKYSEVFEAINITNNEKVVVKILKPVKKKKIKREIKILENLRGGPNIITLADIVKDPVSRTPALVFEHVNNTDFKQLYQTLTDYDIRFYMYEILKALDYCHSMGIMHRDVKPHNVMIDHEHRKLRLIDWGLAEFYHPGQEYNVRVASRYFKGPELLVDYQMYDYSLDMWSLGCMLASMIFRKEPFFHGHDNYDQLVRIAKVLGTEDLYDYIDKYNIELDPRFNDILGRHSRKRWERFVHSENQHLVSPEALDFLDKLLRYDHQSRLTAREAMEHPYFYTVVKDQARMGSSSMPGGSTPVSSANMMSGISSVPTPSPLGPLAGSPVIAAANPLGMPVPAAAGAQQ
Sequence (P67870 whole entry partner): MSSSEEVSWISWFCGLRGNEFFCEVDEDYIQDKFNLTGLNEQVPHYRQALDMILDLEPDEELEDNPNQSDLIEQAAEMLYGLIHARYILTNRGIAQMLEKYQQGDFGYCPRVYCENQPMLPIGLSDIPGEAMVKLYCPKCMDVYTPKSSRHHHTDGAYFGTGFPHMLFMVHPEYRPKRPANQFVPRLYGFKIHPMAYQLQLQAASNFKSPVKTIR
assay summary: CK2 assay (cell-free, 33P-ATP filter plate)
Type: biochemical
test settings: 500 nM compound, cell-free assay; read-out: CK2: % inh 500 nM
The entries below come with measured inhibition at 0.5 µM values attached.
reported metric: inhibition at 0.5 µM (%)

> print(dat)
                                    molecule                            assayed.system  recorded.value
 1    N#Cc1ccc2c(c1)nc(Nc1cccc(F)c1)c1ccsc12  recombinant human CK2 (Homo sapiens (Human), UniProt P68400)            3.06
 2  CCN1CCCC1CNc1nc2cc(-c3nnn[nH]3)ccc2c2sccc12 (centres unmarked)  recombinant human CK2 (Homo sapiens (Human), UniProt P68400)            55.7
 3   N#Cc1ccc2c(c1)nc(Nc1ccc(Cl)cc1)c1cscc12  recombinant human CK2 (Homo sapiens (Human), UniProt P68400)           -2.49
 4  CN1CCC(N(C)c2nc3cc(CNC(=O)Nc4cccc(Cl)c4)ccc3c3sccc23)C1 (centres unmarked)  recombinant human CK2 (Homo sapiens (Human), UniProt P68400)           -50.4
 5      CN(C)CCCN(C)c1nc2cc(C#N)ccc2c2sccc12  recombinant human CK2 (Homo sapiens (Human), UniProt P68400)           -4.72
 6   CN(C)CCNc1nc2cc(C(=O)N(C)C)ccc2c2sccc12  recombinant human CK2 (Homo sapiens (Human), UniProt P68400)            11.8
 7  NC(=O)c1cccc(Nc2nc3cc(C(=O)O)ccc3c3cnccc23)c1  recombinant human CK2 (Homo sapiens (Human), UniProt P68400)             101
 8     N#Cc1ccc2c(c1)nc(NCCC(F)(F)F)c1ccsc12  recombinant human CK2 (Homo sapiens (Human), UniProt P68400)           -7.76
 9  CN1CCC(N(C)c2nc3cc(CN)ccc3c3sccc23)C1 (centres unmarked)  recombinant human CK2 (Homo sapiens (Human), UniProt P68400)           -35.3
10  Cc1ccc(Nc2nc3cc(C(=O)O)ccc3c3cnccc23)cc1  recombinant human CK2 (Homo sapiens (Human), UniProt P68400)              98
11           N#Cc1ccc2c(c1)[nH]c(=O)c1cscc12  recombinant human CK2 (Homo sapiens (Human), UniProt P68400)          -0.336

* * *

assay summary: Pharmacokinetics after IV and PO dose in SD rats
Type: in vivo
test settings: Sprague-Dawley, rat, plasma, po, […]
reported metric: Tmax (h)

> print(dat)
                              sample.smiles  reported.metric  recorded.value
1  O=C(O)c1ccc2c(c1)nc(Nc1cccc(Cl)c1)c1ccncc12             Tmax               1

* * *

assayed system: recombinant human PIM1 (Homo sapiens (Human))
Sequence (P11309 whole entry): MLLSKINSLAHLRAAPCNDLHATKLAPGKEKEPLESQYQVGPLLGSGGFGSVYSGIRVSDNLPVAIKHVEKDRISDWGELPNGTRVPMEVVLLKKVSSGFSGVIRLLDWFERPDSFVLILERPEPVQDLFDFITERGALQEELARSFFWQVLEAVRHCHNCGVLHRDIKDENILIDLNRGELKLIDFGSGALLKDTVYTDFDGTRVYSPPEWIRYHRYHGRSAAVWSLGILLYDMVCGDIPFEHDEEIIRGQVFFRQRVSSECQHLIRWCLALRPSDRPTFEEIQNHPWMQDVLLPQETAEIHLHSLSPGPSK
assay summary: PIM-1 kinase activity in cell-free in vitro assay
Format: biochemical
test settings: cell-free assay
pIC50: −log10 of the molar value.
reported metric: pIC50

> print(dat)
                                    compound                            assayed.system  recorded.value
 1  COc1cc(Nc2nc3cc(C(=O)O)ccc3c3cnccc23)cc(OC)c1  recombinant human PIM1 (Homo sapiens (Human))            6.82
 2  CCN1CCCC1CNc1nc2cc(C(=O)O)ccc2c2cnccc12 (centres unmarked)  recombinant human PIM1 (Homo sapiens (Human))            6.81
 3  NS(=O)(=O)c1cccc(Nc2nc3cc(C(=O)O)ccc3c3cnccc23)c1  recombinant human PIM1 (Homo sapiens (Human))            6.40
 4  c1cc2c(NC3CCNCC3)nc3cc(-c4nnn[nH]4)ccc3c2s1  recombinant human PIM1 (Homo sapiens (Human))            7.11
 5  O=C(O)c1ccc2c(c1)nc(Nc1cccc(C(F)(F)F)c1)c1ccncc12  recombinant human PIM1 (Homo sapiens (Human))            6.80
 6  O=C(O)c1ccc2c(c1)nc(Nc1cccc(F)c1)c1cnccc12  recombinant human PIM1 (Homo sapiens (Human))            6.13
 7  O=C(O)c1ccc2c(c1)nc(Nc1cccc3ncccc13)c1ccncc12  recombinant human PIM1 (Homo sapiens (Human))            6.55
 8   Cc1nccn1CCNc1nc2cc(C(=O)O)ccc2c2cnccc12  recombinant human PIM1 (Homo sapiens (Human))            6.54
 9  CC(=O)Nc1cccc(Nc2nc3cc(C(=O)O)ccc3c3cnccc23)c1  recombinant human PIM1 (Homo sapiens (Human))            6.43
10  O=C(O)c1ccc2c(c1)nc(Nc1cccc(OC(F)(F)F)c1)c1ccncc12  recombinant human PIM1 (Homo sapiens (Human))            6.15
11  OCCN(CCO)CCNc1nc2cc(-c3nnn[nH]3)ccc2c2sccc12  recombinant human PIM1 (Homo sapiens (Human))            6.94

From: patent US8168651B2
